Provenance of the data: paper PMC5613062

experiment: Pharmacokinetics alone and in combination, selumetinib + erlotinib arm; conditions: human, plasma, oral, 100 mg
Measured Metric: tmax (h)
Give the value, in units of h, as a plain number.

Note down tmax recorded for C#Cc1cccc(Nc2ncnc3cc(OCCOC)c(OCCOC)cc23)c1 [Erlotinib, reference compound] 1.5

---

assay: Pharmacokinetics alone and in combination, selumetinib + temsirolimus arm; format: in vivo, human; conditions: human, plasma, iv, median (range); dosed alone, selumetinib 75 mg cohort (N = 6); temsirolimus 25 mg IV; read-out: tmax
Measured Metric: tmax (h)
Give the value, in units of h, as a plain number.

Note down tmax recorded for CO[C@H]1C[C@@H]2CC[C@@H](C)[C@@](O)(O2)C(=O)C(=O)N2CCCC[C@H]2C(=O)O[C@H]([C@H](C)C[C@@H]2CC[C@@H](O)[C@H](OC)C2)CC(=O)[C@H](C)/C=C(\C)[C@@H](O)[C@@H](OC)C(=O)[C@H](C)C[C@H](C)/C=C/C=C/C=C/1C [Sirolimus] 2

---

Reported AUC(0-t) values are given for each entry in this list.
assay: Pharmacokinetics alone and in combination, selumetinib + erlotinib arm; settings: human, plasma, oral, AUC(0–8), geometric mean (% CV); dosed in combination, selumetinib 75 mg BID (N = 6) + erlotinib 100 mg QD
Give the value, in units of ng·h/mL, as a plain number.

C#Cc1cccc(Nc2ncnc3cc(OCCOC)c(OCCOC)cc23)c1 [Erlotinib, reference compound] = 10400

Continue with the next molecule.
Note down AUC(0-t) recorded for Cn1cnc2c(F)c(Nc3ccc(Br)cc3Cl)c(C(=O)NOCCO)cc21 4350

---

Reported AUC(0-t) values are given for each entry in this list.
test: Pharmacokinetics alone and in combination, selumetinib + erlotinib arm; details: human, plasma, oral, AUC(0–12), geometric mean; QD cohorts; dosed alone, selumetinib 150 mg cohort (N = 13); erlotinib 100 mg QD
Give the value, in units of ng·h/mL, as a plain number.

Cn1cnc2c(F)c(Nc3ccc(Br)cc3Cl)c(C(=O)NOCCO)cc21 = 7740

Continue with the next compound.
Note down AUC(0-t) recorded for C#Cc1cccc(Nc2ncnc3cc(OCCOC)c(OCCOC)cc23)c1 [Erlotinib, reference compound] 18300

---

test: Pharmacokinetics alone and in combination, selumetinib + erlotinib arm; details: human, plasma, oral, Cmax, geometric mean; QD cohorts; dosed alone, selumetinib 150 mg cohort (N = 13); erlotinib 100 mg QD
Measured Metric: Cmax (ng/mL)
Give the value, in units of ng/mL, as a plain number.

Note down Cmax recorded for Cn1cnc2c(F)c(Nc3ccc(Br)cc3Cl)c(C(=O)NOCCO)cc21 [Selumetinib] 2450

---

test: Pharmacokinetics alone and in combination, selumetinib + temsirolimus arm; format: in vivo, human; conditions: human, plasma, iv, median (range); dosed in combination, selumetinib 75 mg BID (N = 5) + temsirolimus 25 mg IV; read-out: tmax
Measured Metric: tmax (h)
Give the value, in units of h, as a plain number.

Note down tmax recorded for CO[C@H]1C[C@@H]2CC[C@@H](C)[C@@](O)(O2)C(=O)C(=O)N2CCCC[C@H]2C(=O)O[C@H]([C@H](C)C[C@@H]2CC[C@@H](O)[C@H](OC)C2)CC(=O)[C@H](C)/C=C(\C)[C@@H](O)[C@@H](OC)C(=O)[C@H](C)C[C@H](C)/C=C/C=C/C=C/1C [Sirolimus] 2
